From: PubChem BioAssay (NCI)

- Tested on: SF-539 CNS
- Protocol Summary: NCI tumour cell line growth inhibition, 48 h
The entries below are paired with their reported TGI.
Report as a plain number; the unit µM is understood.

Examples with their reported TGI follow.
| Compound | Assayed System | TGI / µM |
| --- | --- | --- |
| Cc1ccc2c(ccc3ncc(CNc4ccc(NS(C)(=O)=O)cc4)c32)[nH]1 | SF-539 CNS | 50.5 |
| Cc1ccc(C(=O)C2C=C(c3ccc(C)cc3)SC3C=CCC32)cc1 (stereo not given) | SF-539 CNS | 32.2 |
| C[C@]12CC[C@@H]3c4ccc(O)cc4CC[C@H]3[C@@H]1CC(Cc1ccccc1)(Cc1ccccc1)C2=O | SF-539 CNS | 36.8 |
| OCC#Cc1ccccc1C#Cc1ccc(C#Cc2ccccc2C#CCO)cc1 | SF-539 CNS | 91.5 |
| OC(c1cc2ccccc2[nH]1)C(O)(c1cc2ccccc2[nH]1)c1cc2ccccc2[nH]1 (stereo not given) | SF-539 CNS | 88.7 |

Let us examine a further case.
Look up and report measured TGI for this entry: CSc1ccc(Cc2cc(C(C)(C)C)cc(C(C)(C)C)c2O)cc1
31.8

----------
- System: OVCAR-3 ovarian
- Protocol Summary: NCI tumour cell line growth inhibition, 48 h
Property Name: TGI (µM)
Note: unit µM is implicit; provide only the numeric part.

| Compound | TGI [µM] |
| --- | --- |
| CC(C)(C)OC(=O)NCC(c1c[nH]c2cc(Br)ccc12)c1c[nH]c2cc(Br)ccc12 | 29.1 |

Now, please, on to the next compound.
Quote TGI with test system OVCAR-3 ovarian for C=C(C)[C@@]12C[C@H](OC(=O)[C@H](O)[C@@H](NC(=O)c3ccccc3)c3ccccc3)C(C)=C1[C@@H](OC(C)=O)C(=O)[C@@]1(C)C([C@@H]2OC(=O)c2cc(F)cc(F)c2)C2(OC(C)=O)CO[C@@H]2C[C@@H]1O (stereo partly drawn)
1.92

----------
Recorded TGI for the following compounds
- Test system: LXFL 529 NSCLC
- Protocol Summary: NCI tumour cell line growth inhibition, 48 h

Note down TGI recorded for CCCC(=O)Oc1ccc(/C=N/NC(N)=S)nc1
> 100 µM

Query TGI for O=CC1=CCCN(CCc2c[nH]c3ccccc23)C1
45.8 µM

Name the recorded TGI of the compound listed here: O=[N+]([O-])c1cc(I)cc(/C=N/NS(=O)(=O)c2ccc(F)cc2)c1O
43.1 µM

Input Cn1nc(-c2ccccc2)c2c(/C=C/c3ccc(F)cc3)onc2c1=O , output reported TGI.
> 100 µM

Return value of TGI for input O=C(NC1CCCCC1)NC12CC3CC(CC(F)(C3)C1)C2 , no commentary.
> 100 µM

Identify TGI associated with the compound COc1ccc2c(c1)c1ccc3c(c1n2C)C(=O)C=CC3=O
30.2 µM

----------
- Test system: HOP-92 NSCLC
- Protocol Summary: NCI tumour cell line growth inhibition, 48 h
Catalogue of TGI values

Known TGI results, listed for orientation:
| Compound | Property Name | Recorded Result |
| --- | --- | --- |
| Cn1c2ccccc2c2c3c(c4c5ccccc5n(C)c4c21)C(=O)N(Cc1ccccc1)C3=O | TGI | > 100 µM |
| Cc1cc(C)n(CN(CCCCO)Cn2nc(C)cc2C)n1 | TGI | 81 µM |

Complete the entry with TGI for [Mn+3].[O-][Cl+3]([O-])([O-])O.[O-]c1ccccc1C=NCCN1CC1.[O-]c1ccccc1C=NCCN1CC1
> 100 µM

Quote TGI reported for Oc1cccc2cccnc12 please.
> 100 µM

Query TGI for C/C(=N\N)C(CN1CCOCC1)C(c1ccccc1)c1c(O)c2ccccc2oc1=O (stereo not given)
> 100 µM
